- test.protocol: yeast display, Sf9 membrane polyspecificity reagent, FACS + sequencing; frameworks hold sequencing errors
property.measured: polyreactivity (PSR sort gate)

Study these solved cases before continuing.
QVQLVESGGGLVQAGGSLRLSCAASGNMFYANAMGWYRQAPGKERELVAAISGSVCSTYADSVKGRFTISRDNAKNTVYLQMNSLKPEDTAVYYCNASVLDAIFYKSVGYDYWGQGTQVTVSS ... low polyreactivity
QVQLVESGGGLVQAGGSLRLSCAASGIIFSAYAMGCYRQAPGKESELVAAISSTGGSTYYADSVKGRFTISRDNAKNTVYLQMNSLKPEDTADYYCATAFTPSKLSRMGYWGQGTQVTVSS ... high polyreactivity
QVHLVESGGGLVQAGGSLRLSCAATGSTISRYAMGWYRPAPGKERELVAAISWGGNTYYADSVKGRFTISRDNAKNTVYLQMNSLKPEDTAVYYCNRYSKLYNTMDYWGQGTQVTVSS ... high polyreactivity
QVQLVESGGGLVQAGGSLRLSCADSGFTFDYYTMGWYRQAPGKDRELVAAITYSGGITYYADSVKGRFTISRDNAKNTVYLQMNSLKPEDTAVYYCNARYSPRTGRGRHVTYYYWGQGTQVTVSS ... high polyreactivity
QVQLVESGGGLVQAGGSLRLSCAASGRTFAFNAMGWYRPAPGKERELVAAIRWSGGCTYYADSVKGRFTISRDSPKNTVSLQMNTLKPEDTAVYYCAAYEKRLGYDYWGQGTQVTVSS ... high polyreactivity
QVQLVESGGGLVQAGGSLRLSCAASVITFYFNAMGWYRQAPGKERELVAVITSGGSTNYADSVKGRFTISRDNAKNTVNLQMNSLKPEDTAVYYCATDKSYSSWSAQYDYWGQGTQVTVSS ... low polyreactivity
QVQLVESGGGLVQAGGSLRLSCAASGRTFQPYAMGWYRQAPGKERELVASISRSGGRTYYADSVKGRFTISRDNAKNTVYLQMNSLKPEDTAVYYCAADIPYTRSIKYYYWGQGTQVTVSS ... high polyreactivity
QVQLVESGGGLVQAGGSLRLSCAASGFIFDVYAMGWYRQAPGKERELVAAISSSGGRTYYADSVKGRFTISRDNAKNTVYLQMNSLKPEDSAVYYCAAKTHSRTKVYTADYWGQGTQVTVSS ... high polyreactivity

Report measured polyreactivity (PSR sort gate); entry is QVQLVESGGGIVQAGGSLRLSCAASGYTFRGNVMGWYRQAPGKERELVAAISRSGGSTYYADSVKGRFTISRDNAKNTVYLQMYCLKPADTAVHYCAKKPTSTYQQDSPRWSDYWGQGTQVTVSS high polyreactivity

Please supply the value of reported polyreactivity (PSR sort gate) for the item QVQLVESGGGLVQAGCSLRLSCAASGRIFDYYAMGWNRQAPGKERELVAAISYSGGSTHYADSVKGRFTISRDNAKNSVYLQMISLKPEDTAVYYCAGWAWSGVEYDYWGQGSQVTVSS low polyreactivity

Find the measured polyreactivity (PSR sort gate) of QVQLVESGGGLVQAGGSLRLSCAASGYIFQYYPMGWYRQAPGKERELVAAITSGTRTYYADSVKGRFTISRDNAKNTVYLQMNSLKPDDTAGYYCAASPDYSRYWVYAPTRRLGYWGQGTQVTVSS and report it. high polyreactivity

====

- test.protocol: yeast display, Sf9 membrane polyspecificity reagent, FACS + sequencing; frameworks hold sequencing errors
property.measured: polyreactivity (PSR sort gate)

Record excerpt, results attached:
QVQLVESGGGLVQAGGSLRLSCAASGSTFYSNVMGWYRQAPGKERELVAAISRSGGSTYYADSVKGRFTISRDNAKNTVYLQMNSLKPEDTAVYYCAARTYRRPYYSWGQGTQVTVSS ... high polyreactivity
QVQLVESGGGLVQAGGSLRLSCAASGNIFWWNAMGWYRQAPGKERELVAAITSDSTTYYADSVKGRFTISRDNAKNTVYFQMNCLKPEDTAVYYCAAYSYGGQGVDYGYWGQGTQVSVSS ... low polyreactivity
QVQLVESGGGLVQAGGSLRLSCAASGRTFYRYTMGWYRQAPGTERELVAAISWSGGSTYYADSVKGRFTSSRDNAKNTVYLQMNSLKPEDTAVYYCAKATYWLYVQWYTYGYWGQGTQVTVSS ... high polyreactivity
QVQLVESGGGLVQAGGSLRLSCSASGSIFDAYAMGWYRQAPGKERELVAAITTGGGSTYYADSVKGRFTISRDNAKNTVYLQMNSLKPEDTAVYYCAAEGFATDGWWYYKAYDDWGQGTQVTVSS ... low polyreactivity

Attention now shifts to the item below.
Fill in reported polyreactivity (PSR sort gate) for this entry: QVQLVESGGGLVQAGGSRRLTCAASGFTFEYYAMGWYRQAPGTERELVAAISYSGSSTYYADSVKGRFTISRDNAKNTVYLQMNSLKPEDTAVYYCAARAVSRRFDYWGQGTQVTVSS high polyreactivity

====

- test.protocol: yeast display, Sf9 membrane polyspecificity reagent, FACS + sequencing; frameworks hold sequencing errors
property.measured: polyreactivity (PSR sort gate)

Sample records with polyreactivity (PSR sort gate):
QVQLVESGGGLVQAGGSLRLSCAASGRIFSKYGMGWYRQAPGKETEFVAAISGSGTNTYYADSVKGRFTISRDNAKNTVYLQMNSLKPEDTAVYYCAKRKSVRSTPSYEYWGQGTQVTVSS ... high polyreactivity
QVQLVESGGGLVQAGGRLRLSCAASGSIFQFYAMGWYRQAPGKERELVAAINWSGGSTYYADSVKGRFTISRDNAKNTVYLQMNSLKPEETAVYYCNALRRIGRYYKAGGYGYWGQGTQVTVSS ... high polyreactivity
QVQLVESGGGLVQAGGSLRLSCAASGSIFPGYAMGWYRQAPGKERELVATITWSGGSTYYADSVKGRFTISRDNAKNTVYLQMNSLKPEDTAVYYCAADGVDRYLRTISYLYGYWGQGTQVTVSS ... low polyreactivity
QVQLVESGGGLVQAGGSLRLSCAASGRSFCTYAMGSYRQAPGKERELVAAITSGGSTNYADSVKGRFTISRDNAKNTVYLQMNSLKPEDTAVYYCAAVEYLRESDYWGQCTQVTVSS ... low polyreactivity
QVQLVESGGGLVQAGGSLRLSCAASGSTLGSNAMGWYRQAPGKERELVAAITWSGGTTYYADSVKGRFTISRDNAKNTVYLQMNSLKPEDTAVYYCATGQSVIYRYEYWGQGTQVSVSS ... low polyreactivity
QVQLVESGGGLVQAGGSLRLSCAASGRIFAPYDMGWYRQAPGKERELVASITSGGSTNYTDSVKGRFTISRVNAKNTVYLQMNSLIPEDTAVYYCNTAKISEPIDPRQRVWGRTYDYWGQGTQVTVSS ... low polyreactivity

Please look at this sequence and report its polyreactivity (PSR sort gate): QVQLVESGGGLVQAGGSLRLSCAASGSIFRTYVMGWYRQAPGKERELVAAISSSGGRTYYADSVKGRFTISRDNAKNTVYLLMNSLKPEDTAVYYCAAPRTSTRYRLTLQGVNQYDYWGQGTQVTVSS high polyreactivity

Query polyreactivity (PSR sort gate) for QVQLVESGGGLVQAGGSLRLSCAASGYTFSDYAMGWYRQAPGKERELVAAISWSGGSTYYADSVKGRFTISRDNAKNTVFLQMNSLKPEDTAVYYCAAKWYAPDLLYYYWGQGTQVTVSS low polyreactivity

Please give the documented polyreactivity (PSR sort gate) of QVQLVESGGGLVQAGGSLRLSCAASGSTFYGNAMGWYRQAPGKERELVAAITWGDASTYYADSVKGRFTISRDNAKNTVYLQMNSLKPEDTAVYYCAVDESYGSSSDMDYWGQGTQVTVSS low polyreactivity

Assign polyreactivity (PSR sort gate) to the following record: QVQLVESGGGLVQAGGSLRLSCAASGRNIRRYTMGLYIQAPGKEREFVAAITWSGSSTNYADSVKGRFTISRDNAKNTVYLQMNSLKPEDTAVYYCAAENRRRRDDYWGQGTQVTVSS high polyreactivity

====

- test.protocol: yeast display, Sf9 membrane polyspecificity reagent, FACS + sequencing; frameworks hold sequencing errors
property.measured: polyreactivity (PSR sort gate)

Check out these entries, answers already filled in.
QVQLVESGGGLVQAGGSLRLSCAASGHIFFYYTMGWYSPAPGKERELVAGITIGGSTNYADSVKGRFTISRDNAKNTVYLQMNSLKPEDTAVYYCNVVKYVYIYSYWEYYYWGQGTQVNVSS ... low polyreactivity
QFQLLESGGGLVQAAGSLRLSCAASGGIFRNYAMGWYRKAPGKERELVAAITSSGTSTYYADSVNGRFTISRDNAKNTVYLQMNSLKPEDTAVYYFAADVTARYDYWGQGTQVTVSS ... high polyreactivity
QVHLVESGGGLVQAGGSLRLSCAASGSTFQLYAMGWYRQAPGKERELVAAITSSAGRTYYADSVKGRFTISRDNAKNTVYLQMNSLKPEDTAVYYCAKDGSFTFWGQGTQVTVSS ... low polyreactivity
QVQLVESGARLVQAGGSLRLSCAASAYTLVGYAMGWYRQEPGKERELVADINFSGGRTYYADSVKGRFTISRDNAKNNVYLQMNSLKPEDTAVYYCNAAGALSWFYYGYDYWGQGTQVTLSS ... low polyreactivity
QVQLVESGGGLVQAGGSLRLICAASGSTFPKYAMGWYRQAPGKERELVASISVTTGSTYYADSVKGRFTISRDYAKNTVYLQMNSLKPEDTAVYYCAKRTYSRKFRGAYNYWGQGTQVTVSS ... high polyreactivity
QVQLVESGGGVVQAGGSLRLSCAASGFIFEYYPMGWYRPAPGKERELVAAISWSGGSTYYADSVKGRFTISRDNAKNTVYLQMNSLKPEDTAVYYCAAGRYFHHPTSYYYWGQGTQVTVSS ... high polyreactivity

Read the next record carefully.
Specify reported polyreactivity (PSR sort gate) for the sequence shown: QVKLVESGGGLVQAGGSLRLSCAASGRTVTRNTMGWYRQAPGKERELVAAISRSGGGTYYADSVKGRFTISRDNAKNTVYLQMNSLKPEDTAVYYCAAVPQNYRNFDGYNYWGQGTQVTVSS high polyreactivity
